Attribution: ChEMBL document CHEMBL1133719

# Tested on: MCF7
# experimentalProtocol: Cytotoxicity against NCI tumor panel, MCF-7 breast cancer cell line
# Assay type: functional, cell-based
# testContext: Homo sapiens
pIC50: −log10 of the molar value.
assayReadout: pIC50

| compound | testValue |
| --- | --- |
| CC(=O)Nc1ccc2[nH]c(C(=O)Nc3ccc4[nH]c(C(=O)N5CC(CCl)c6c5cc(O)c5ccccc65)cc4c3)cc2c1 (stereo unspecified) | 9.32 |

----------
# System: NCI-H322M
# experimentalProtocol: Cytotoxicity against NCI tumor panel, NCI-H322M non small-cell lung cancer cell line
# Format: functional, cell-based
# testContext: Homo sapiens

| molecule | subjectOfTest | IC50 |
| --- | --- | --- |
| CC(=O)Nc1ccc2[nH]c(C(=O)Nc3ccc4[nH]c(C(=O)N5CC(CCl)c6c5cc(O)c5ccccc65)cc4c3)cc2c1 (stereo unspecified) | NCI-H322M | 2.13 nM |
